Test: Antiproliferative activity against human L02 cells assessed as reduction in cell viability incubated for 48 hrs by CCk-8 assay
Assay type: toxicity, cell-based
Measured log10 of IC50 at 48 h by item
Please interpret these as log10 of IC50 at 48 h where IC50 at 48 h is in µM.

Known results for compounds:
C[C@H]1CCC/C=C/[C@@H]2C[C@H](O)C[C@H]2[C@H](OC(=O)CCCC(=O)OCCCCOc2ccc(-c3cc(=S)ss3)cc2)/C=C/C(=O)O1; -0.37
C[C@H]1CCC/C=C/[C@@H]2C[C@H](O)C[C@H]2[C@H](OC(=O)CCC(=O)OCCCCCCOc2ccc(-c3cc(=S)ss3)cc2)/C=C/C(=O)O1; 0.51
C[C@H]1CCC/C=C/[C@@H]2C[C@H](O)C[C@H]2[C@H](O)/C=C/C(=O)O1; -1.03
C[C@H]1CCC/C=C/[C@@H]2C[C@H](O)C[C@H]2[C@H](OC(=O)c2ccccc2C(=O)Oc2ccc(-c3cc(=S)ss3)cc2)/C=C/C(=O)O1; 0.55
C[C@H]1CCC/C=C/[C@@H]2C[C@H](O)C[C@H]2[C@H](OC(=O)CCC(=O)OCCCCOc2ccc(-c3cc(=S)ss3)cc2)/C=C/C(=O)O1; 0.21
C[C@H]1CCC/C=C/[C@@H]2C[C@H](O)C[C@H]2[C@H](OC(=O)CCCC(=O)OCCCCCCOc2ccc(-c3cc(=S)ss3)cc2)/C=C/C(=O)O1; 0.51
CC(=O)O[C@H]1C(=O)[C@@]2(C)[C@H]([C@H](OC(=O)c3ccccc3)[C@]3(O)C[C@H](OC(=O)[C@H](O)[C@@H](NC(=O)c4ccccc4)c4ccccc4)C(C)=C1C3(C)C)[C@]1(OC(C)=O)CO[C@@H]1C[C@@H]2O; -0.89

Below: the item to evaluate.
// C[C@H]1CCC/C=C/[C@@H]2C[C@H](O)C[C@H]2[C@H](OC(=O)CCC(=O)OCCOc2ccc(-c3cc(=S)ss3)cc2)/C=C/C(=O)O1 : log10 of IC50 at 48 h value = 0.92

----------
Test: Antiproliferative activity against human L02 cells assessed as reduction in cell viability incubated for 48 hrs by CCk-8 assay
Type: toxicity, cell-based
result-type: IC50 at 48 h

C[C@H]1CCC/C=C/[C@@H]2C[C@H](OC(=O)CCCC(=O)OCCCCCCOc3ccc(-c4cc(=S)ss4)cc3)C[C@H]2[C@H](OC(=O)CCCC(=O)OCCCCCCOc2ccc(-c3cc(=S)ss3)cc2)/C=C/C(=O)O1; > 40 µM
C[C@H]1CCC/C=C/[C@@H]2C[C@H](O)C[C@H]2[C@H](OC(=O)CCCC(=O)Oc2ccc(-c3cc(=S)ss3)cc2)/C=C/C(=O)O1; 24.8 µM
C[C@H]1CCC/C=C/[C@@H]2C[C@H](OC(=O)CCC(=O)OCCOc3ccc(-c4cc(=S)ss4)cc3)C[C@H]2[C@H](O)/C=C/C(=O)O1; > 80 µM

Below: the item to evaluate.
// C[C@H]1CCC/C=C/[C@@H]2C[C@H](O)C[C@H]2[C@H](OC(=O)CCCC(=O)OCCOc2ccc(-c3cc(=S)ss3)cc2)/C=C/C(=O)O1 : IC50 at 48 h value = 1.75 µM

----------
Tested on: A549
Assay: Antiproliferative activity against human A549 cells assessed as reduction in cell viability incubated for 48 hrs by CCk-8 assay
Assay type: functional, cell-based
Settings: A549, 48 h
pIC50: −log10 of the molar value.
Measured pIC50 by item

C[C@H]1CCC/C=C/[C@@H]2C[C@H](O)C[C@H]2[C@H](OC(=O)c2ccccc2C(=O)Oc2ccc(-c3cc(=S)ss3)cc2)/C=C/C(=O)O1; 6.48
C[C@H]1CCC/C=C/[C@@H]2C[C@H](OC(=O)CCCC(=O)OCCCCOc3ccc(-c4cc(=S)ss4)cc3)C[C@H]2[C@H](OC(=O)CCCC(=O)OCCCCOc2ccc(-c3cc(=S)ss3)cc2)/C=C/C(=O)O1; < 4.40
C[C@H]1CCC/C=C/[C@@H]2C[C@H](OC(=O)CCC(=O)OCCCCCCOc3ccc(-c4cc(=S)ss4)cc3)C[C@H]2[C@H](OC(=O)CCC(=O)OCCCCCCOc2ccc(-c3cc(=S)ss3)cc2)/C=C/C(=O)O1; < 4.40
Oc1ccc(-c2cc(=S)ss2)cc1; 4.56
C[C@H]1CCC/C=C/[C@@H]2C[C@H](OC(=O)CCCC(=O)OCCCCCCOc3ccc(-c4cc(=S)ss4)cc3)C[C@H]2[C@H](OC(=O)CCCC(=O)OCCCCCCOc2ccc(-c3cc(=S)ss3)cc2)/C=C/C(=O)O1; < 4.40
C[C@H]1CCC/C=C/[C@@H]2C[C@H](OC(=O)c3ccccc3C(=O)OCCOc3ccc(-c4cc(=S)ss4)cc3)C[C@H]2[C@H](OC(=O)c2ccccc2C(=O)OCCOc2ccc(-c3cc(=S)ss3)cc2)/C=C/C(=O)O1; < 4.40
C[C@H]1CCC/C=C/[C@@H]2C[C@H](O)C[C@H]2[C@H](O)/C=C/C(=O)O1 [BREFELDIN A]; 7.25
C[C@H]1CCC/C=C/[C@@H]2C[C@H](OC(=O)CCC(=O)OCCCCOc3ccc(-c4cc(=S)ss4)cc3)C[C@H]2[C@H](OC(=O)CCC(=O)OCCCCOc2ccc(-c3cc(=S)ss3)cc2)/C=C/C(=O)O1; < 4.40

// C[C@H]1CCC/C=C/[C@@H]2C[C@H](O)C[C@H]2[C@H](OC(=O)c2ccccc2C(=O)OCCOc2ccc(-c3cc(=S)ss3)cc2)/C=C/C(=O)O1 : pIC50 value = < 4.40

// C[C@H]1CCC/C=C/[C@@H]2C[C@H](OC(=O)CCC(=O)OCCCCCCOc3ccc(-c4cc(=S)ss4)cc3)C[C@H]2[C@H](O)/C=C/C(=O)O1 : pIC50 value = < 4.40

// C[C@H]1CCC/C=C/[C@@H]2C[C@H](OC(=O)c3ccccc3C(=O)OCCCCOc3ccc(-c4cc(=S)ss4)cc3)C[C@H]2[C@H](OC(=O)c2ccccc2C(=O)OCCCCOc2ccc(-c3cc(=S)ss3)cc2)/C=C/C(=O)O1 : pIC50 value = < 4.40
